Measured values drawn from paper PMC5540273 for this set.

# Test system: PIK3CA;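 also: KINOMEscan kinase panel screen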
# condition_set: concentration: 1 μM, replicates: in singlicate; n = 1
measure: %Inh (%)
Report the value in % with no unit label.

Query block: Fill in the blank: the reported %Inh of "CCc1nc(-c2cccc(C)c2)c(-c2ccncc2)s1" is ____.
Result block: 0

Query block: Fill in the blank: the reported %Inh of "COc1cc2nccc(Nc3cccc(Oc4ccccc4)c3)c2cc1OC.Cl" is ____.
Result block: 0

Query block: Fill in the blank: the reported %Inh of "Cc1nnc(-c2ccc(C)c(-c3ccc(C(=O)O)cc3)c2)o1" is ____.
Result block: 0

Query block: Fill in the blank: the reported %Inh of "Cn1c(=O)c(F)c(Nc2ccc(I)cc2F)c2c(=O)n(OC[C@H](O)CO)cnc21" is ____.
Result block: 0

Query block: Fill in the blank: the reported %Inh of "CCn1c(-c2nonc2N)nc2ccccc21" is ____.
Result block: 0

Query block: Fill in the blank: the reported %Inh of "CCn1c(-c2ccoc2)nc2cnccc21" is ____.
Result block: 0

Query block: Fill in the blank: the reported %Inh of "CN(C)c1cc(-c2ccc3c(N)n[nH]c3c2)nc(N)n1" is ____.
Result block: 0

Query block: Fill in the blank: the reported %Inh of "COc1cccc(-n2cnc3c(N)ncnc32)c1" is ____.
Result block: 21

Query block: Fill in the blank: the reported %Inh of "O=C(Nc1n[nH]c2cc(-c3ccccc3F)ccc12)C1CC1" is ____.
Result block: 0

Query block: Fill in the blank: the reported %Inh of COc1cc(Nc2nccc(N3CCC(NC(=O)C4COc5ccccc5O4)C3)n2)cc(OC)c1OC (stereo not shown) is ____.
Result block: 0

Query block: Fill in the blank: the reported %Inh of "Nc1ncnc2c1ncn2-c1cccc(F)c1" is ____.
Result block: 0

Query block: Fill in the blank: the reported %Inh of COc1ccc(CNC(=O)NC2CCN(c3ccnc(Nc4ccc(F)cc4)n3)C2)cc1 (stereo not shown) is ____.
Result block: 2

Query block: Fill in the blank: the reported %Inh of "Nc1n[nH]c2ncc(-c3ccccc3)cc12" is ____.
Result block: 0
